# assay_target: T1, Human CD3eg linker (human)
# T1 construct: Single chain: epsilon and gamma subunits of human CD3 joined by a 29-mer linker, Flag-tag at the C-terminus; also called recombinant human CD3
# T1 chain: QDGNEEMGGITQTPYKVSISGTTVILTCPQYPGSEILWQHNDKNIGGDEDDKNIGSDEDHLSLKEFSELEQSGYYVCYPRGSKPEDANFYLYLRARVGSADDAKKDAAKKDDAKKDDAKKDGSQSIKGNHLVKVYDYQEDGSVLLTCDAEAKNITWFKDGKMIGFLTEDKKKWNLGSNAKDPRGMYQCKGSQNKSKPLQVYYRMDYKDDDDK
# measurement_notes: Biacore SPR, vs template H183/L072
Each record here notes measured fold change of affinity.

>  <binder>
H183/L072 VH G26Y (antibody, name in Kabat numbering, V domains shown) VH: QVQLVESGGGLVQPGRSLRLSCAASYFTFSNAWMHWVRQAPGKGLEWVAQIKDKGNAYAAYYAPSVKGRFTISRDDSKNSIYLQMNSLKTEDTAVYYCHYVHYASASTVLPAFGVDAWGQGTTVTVSS VL: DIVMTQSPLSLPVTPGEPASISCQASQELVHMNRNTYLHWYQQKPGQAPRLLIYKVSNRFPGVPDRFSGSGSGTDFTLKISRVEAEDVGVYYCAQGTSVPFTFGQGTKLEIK

>  <fold change of affinity, fold>
0.6

$$$$
>  <binder>
H183/L072 VH T28F (antibody, name in Kabat numbering, V domains shown) VH: QVQLVESGGGLVQPGRSLRLSCAASGFFFSNAWMHWVRQAPGKGLEWVAQIKDKGNAYAAYYAPSVKGRFTISRDDSKNSIYLQMNSLKTEDTAVYYCHYVHYASASTVLPAFGVDAWGQGTTVTVSS VL: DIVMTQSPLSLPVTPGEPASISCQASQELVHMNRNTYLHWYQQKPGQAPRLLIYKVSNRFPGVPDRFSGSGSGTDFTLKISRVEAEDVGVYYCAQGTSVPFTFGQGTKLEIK

>  <fold change of affinity, fold>
1

$$$$
